Test system: UACC-62 melanoma
Assay: NCI-60 one-dose screen, 48 h (100 = growth as untreated, 0 = no growth, -100 = all killed)
Details: 10 µM unless noted
The panel holds about 83,000 compounds, 20% with a hit somewhere; the sample as a whole holds those more often.
test readout: growth (%)

{"compound": "O=[N+]([O-])c1ccc(O)c(S(=O)(=O)O)c1", "tgt": "UACC-62 melanoma", "test readout": "growth", "number": 97.5}
{"compound": "c1ccc2c(c1)Sc1ccccc1S2", "tgt": "UACC-62 melanoma", "test readout": "growth", "number": 102}
{"compound": "O=C(O)c1cccc([N+](=O)[O-])c1", "tgt": "UACC-62 melanoma", "test readout": "growth", "number": 101}
{"compound": "CCOc1ccc(I)cc1", "tgt": "UACC-62 melanoma", "test readout": "growth", "number": 95.2}
{"compound": "O=C(O)[C@@H]1[C@H]2C[C@H]3c4[nH]c5ccccc5c4CCN3C[C@@H]2CC[C@@H]1O", "tgt": "UACC-62 melanoma", "test readout": "growth", "number": 99.4}
{"compound": "O=C1NC(=O)C2C(=O)NC(=O)C1C21CCc2ccccc21 (stereo unspecified)", "tgt": "UACC-62 melanoma", "test readout": "growth", "number": 83.6}

---

Test system: COLO 205 colon
Test: NCI-60 one-dose screen, 48 h (100 = growth as untreated, 0 = no growth, -100 = all killed)
Conditions: 10 µM
Compounds without any hit were thinned out: in the full panel of roughly 83,000, 20% have a hit.

{"molecule": "CCN(CC)CCCC(C)Nc1ccnc(/C=C/c2ccc(Cl)cc2)c1 (configuration not stated)", "units text": "%", "growth": -64.4}
{"molecule": "Nc1ncnc2[nH]ncc12", "units text": "%", "growth": 10.8}
{"molecule": "NCCCN", "units text": "%", "growth": 122}
{"molecule": "O=C(O)c1cc([N+](=O)[O-])ccc1Cl", "units text": "%", "growth": 107}
{"molecule": "Nc1ccc(N)c([N+](=O)[O-])c1", "units text": "%", "growth": 112}
{"molecule": "Nc1nc(N)c(N=Nc2ccc(C(=O)O)cc2)c(N)n1", "units text": "%", "growth": 117}
{"molecule": "COc1ccc(C(O)c2ccccc2)cc1 (configuration not stated)", "units text": "%", "growth": 106}

---

Test system: M14 melanoma
Assay: NCI-60 one-dose screen, 48 h (100 = growth as untreated, 0 = no growth, -100 = all killed)
Settings: 10 µM
The panel holds about 83,000 compounds, 20% with a hit somewhere; the sample as a whole holds those more often.

{"compound": "CCC/C=C(\\C)C(C)(C#N)C(=O)OCC (stereo not drawn)", "units text": "%", "growth": 116}
{"compound": "c1csc(-c2cc(-c3cc(-c4cccs4)[nH]n3)n[nH]2)c1", "units text": "%", "growth": 96.9}
{"compound": "COC(=O)C(O)c1ccccc1 (stereo not drawn)", "units text": "%", "growth": 105}
{"compound": "CCOC(=O)Nc1cc2c(c(N)n1)N=C(c1ccccc1)CO2", "units text": "%", "growth": 15.4}
{"compound": "COc1ccccc1NC(=O)C1=C(C)NC(C)=C(C(=O)Nc2ccccc2OC)C1c1cccc([N+](=O)[O-])c1", "units text": "%", "growth": 76.5}
{"compound": "COc1ccc(-c2cc3c(nn2)-c2ccccc2C3=O)cc1", "units text": "%", "growth": 42.9}
{"compound": "CN(C)C(C)(C)CC(C)(C)C", "units text": "%", "growth": 105}
{"compound": "CC(=O)OCC1CCCO1 (stereo not drawn)", "units text": "%", "growth": 110}
{"compound": "O=C1C=CC2=C3c4cc(O)c(O)cc4CC3(O)COC2=C1O (stereo not drawn)", "units text": "%", "growth": 102}
{"compound": "CNS(=O)(=O)c1ccc(Cl)c(Cl)c1", "units text": "%", "growth": 98.5}
{"compound": "O=C(CCNNC(=O)c1ccncc1)NCc1ccccc1", "units text": "%", "growth": 103}
{"compound": "NCC(=O)CCC(=O)O", "units text": "%", "growth": 113}
{"compound": "Cc1ccncc1C(N)=O", "units text": "%", "growth": 103}
{"compound": "CCCCC1(CC)COC(CCC)OC1 (stereo not drawn)", "units text": "%", "growth": 99.7}
{"compound": "O=c1[nH][nH]c(=O)c2cc([N+](=O)[O-])ccc12", "units text": "%", "growth": 99.9}
{"compound": "CCOC(=O)c1ccc(NC(=S)P(=O)(c2ccccc2)c2ccccc2)cc1", "units text": "%", "growth": 97.7}
{"compound": "COC(=O)CCCCC1=CCC2C(=O)C=C(O)C2C1 (stereo not drawn)", "units text": "%", "growth": 109}
{"compound": "COC(=O)c1ccccc1Br", "units text": "%", "growth": 88.9}
{"compound": "CC1=NN(c2ccccc2)C(=O)/C1=C\\N1CC(=O)NC1=S", "units text": "%", "growth": 103}
{"compound": "COc1cc(C(=O)NC(=S)Nc2ccc3ccccc3c2)cc(OC)c1OC", "units text": "%", "growth": 115}
{"compound": "Nc1ccccc1SC(CC(=O)c1ccccc1)c1c(Cl)cccc1Cl (stereo not drawn)", "units text": "%", "growth": 93}
{"compound": "CC1CCC(C(=O)O)N1 (stereo not drawn)", "units text": "%", "growth": 102}
{"compound": "CCN(CC)C(=O)/C=C(/C)c1ccccc1", "units text": "%", "growth": 104}
{"compound": "NC(=O)NC(=O)c1ccc(Cl)cc1", "units text": "%", "growth": 96.1}
{"compound": "COCCCC/C(=N\\OCCN)c1ccc(C(F)(F)F)cc1", "units text": "%", "growth": 109}
{"compound": "CCOC(=O)C(O)C(O)C(=O)OCC (stereo not drawn)", "units text": "%", "growth": 104}
{"compound": "C#CC(C(C)C)N(CCO)CCCC (stereo not drawn)", "units text": "%", "growth": 108}
{"compound": "CCCCCCCO", "units text": "%", "growth": 98.5}
{"compound": "CC1(C)Nc2cccc3c(N=Nc4ccc(N=Nc5ccccc5)c5ccccc45)ccc(c23)N1", "units text": "%", "growth": 91.6}
{"compound": "CC(=O)OCC(=O)[C@@]1(O)CC[C@H]2[C@@H]3CC[C@@H]4C[C@H](O)CC[C@]4(C)[C@H]3C(=O)C[C@@]21C", "units text": "%", "growth": 110}
{"compound": "CC(=Nc1ccccc1)C1=C(O)C(Cc2cccc(F)c2)NC1=O (stereo not drawn)", "units text": "%", "growth": 7.5}
{"compound": "S=C(Nc1ccccc1)N1CCCCC1", "units text": "%", "growth": 97.3}
{"compound": "O=C(O)c1cccc([N+](=O)[O-])c1O", "units text": "%", "growth": 94.1}
{"compound": "O=S(=O)(Cc1ccccc1)c1ccccc1", "units text": "%", "growth": 104}
{"compound": "CC(C)=C(NC(=O)c1ccccc1)C(=O)O", "units text": "%", "growth": 108}
{"compound": "COC(=O)c1ccccc1N(C)C", "units text": "%", "growth": 102}
{"compound": "O=C1Cc2cc(O)ccc2O1", "units text": "%", "growth": 98.9}
{"compound": "N#CCc1ccc([N+](=O)[O-])cc1", "units text": "%", "growth": 101}
{"compound": "CN(C)c1ccc(C(c2ccc(O)cc2)c2ccc(N(C)C)cc2)cc1", "units text": "%", "growth": 89.3}
{"compound": "CC1=C(/C=C/C(C)=C/C=C/C(C)=C/CO)C(C)(C)CCC1", "units text": "%", "growth": 104}
{"compound": "CCOC(=O)C/C(C)=N\\O", "units text": "%", "growth": 101}
{"compound": "O=C(O)COCC(=O)O", "units text": "%", "growth": 111}
{"compound": "CN(C)c1ccc(CNC(C(=O)c2ccccc2)c2ccccc2)cc1 (stereo not drawn)", "units text": "%", "growth": 114}
{"compound": "COc1cc2nc3cc([N+](=O)[O-])ccc3c(Cl)c2cc1OC", "units text": "%", "growth": 96.6}
{"compound": "COCCOCCCl", "units text": "%", "growth": 101}
{"compound": "CC1(c2ccccc2)NC(=O)NC1=O (stereo not drawn)", "units text": "%", "growth": 121}
{"compound": "NC(CSC(c1ccccc1)(c1ccccc1)c1ccccc1)C(=O)O (stereo not drawn)", "units text": "%", "growth": 13.6}
{"compound": "O=c1cc(-c2ccccc2)[nH]c(=S)[nH]1", "units text": "%", "growth": 102}
{"compound": "NC(C(=O)O)C(O)c1ccco1 (stereo not drawn)", "units text": "%", "growth": 105}
{"compound": "O=c1cc(-c2ccccc2)nc2cc(-c3ccco3)[nH]n12", "units text": "%", "growth": 77.8}
{"compound": "CCOC(=O)C1OC1c1ccccc1 (stereo not drawn)", "units text": "%", "growth": 97.8}
{"compound": "O=C1C=C(Nc2ccc([N+](=O)[O-])cc2)c2ccccc2C1=O", "units text": "%", "growth": 13.3}
{"compound": "COc1ccc2c(c1)CCc1c-2n[nH]c1-c1[nH]nc2c1CCc1cc(OC)ccc1-2", "units text": "%", "growth": 36.1}
